These entries and their values trace back to paper PMC9482650.

# study target: Inadl_1, Q8NI35
# Sequence (Q8NI35 113-229): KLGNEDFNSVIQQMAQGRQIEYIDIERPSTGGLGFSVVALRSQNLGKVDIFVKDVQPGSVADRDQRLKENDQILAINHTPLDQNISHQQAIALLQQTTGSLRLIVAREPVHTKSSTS
# test details: holdup assay
# Set-up: key: below the threshold = too weak to quantify, mostly under pKd 3.1 to 4
# conditions used: plain residues with an end cap or a label only (N-terminal biotin on a linker: ado-ado)
outcome measure: pKd

Solved entries:
>>> result("QKNKDREYYV [NRXN3, Q9HDB5]")
3.69
>>> result("TFSRRPKTRV [CD226, Q15762]")
"below the threshold"
>>> result("PKSNSSKEYV [CLDN7, O95471]")
"below the threshold"
>>> result("QLKSGRDSTV [TMEM178A, Q8NBL3]")
"below the threshold"
>>> result("RSPVATATSC [DUSP5, Q16690]")
"below the threshold"

Sure, the documented pKd for IGHEDLETAV [DGKI, O75912] is below the threshold

pKd recorded for this binder, VKQYADVEGF [HNRNPK, P61978;P61978-2] , is below the threshold

Quick note, pKd for VYEVPVETKF [SLC26A3, P40879] landed at below the threshold
